- target.entity: human orexin-2 (hOX2) receptors (Homo sapiens, UniProt O43614)
- Construct: expressed in transfected cells
- Sequence (O43614 whole entry): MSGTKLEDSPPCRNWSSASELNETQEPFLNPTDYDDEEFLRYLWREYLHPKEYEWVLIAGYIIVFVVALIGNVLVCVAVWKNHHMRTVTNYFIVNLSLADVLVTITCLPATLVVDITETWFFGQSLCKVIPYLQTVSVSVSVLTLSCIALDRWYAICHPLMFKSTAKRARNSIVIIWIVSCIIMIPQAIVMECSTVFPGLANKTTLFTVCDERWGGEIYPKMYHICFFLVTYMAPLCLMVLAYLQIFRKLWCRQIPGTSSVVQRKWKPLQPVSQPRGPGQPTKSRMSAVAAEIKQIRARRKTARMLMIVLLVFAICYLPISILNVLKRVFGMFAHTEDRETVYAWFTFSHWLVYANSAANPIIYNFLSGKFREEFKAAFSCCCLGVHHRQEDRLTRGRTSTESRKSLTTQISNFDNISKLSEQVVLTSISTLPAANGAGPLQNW
- experiment: Intracellular Ca2+ mobilization assay (FLIPR), antagonism of orexin-A
- Assay type: cell-based
- run.parameters: CHO(dHFr-) cells stably expressing hOX2; orexin-A at EC80 as agonist; antagonist applied 25 min before; Kb=IC50/(1+[A]/EC50); read-out: Kb (μM) OX2R (human)
Structures can show the parent of a compound that is named as a salt.
test.readout: Kb (µM)
Numbers only, in µM.

Completed entries (count: 3):
Cc1ccc(N(CCc2ccc(C(F)(F)F)nc2)C(=O)[C@@H](O)c2ccccc2)cc1 [Example 15] | 0.0241
O=C([C@@H](O)c1ccc(F)cc1)N(CCc1ccc(C(F)(F)F)cn1)c1ccc2c(c1)CCC2 [Example 86] | 0.0378
Cc1ccc(N(CCc2ccc(C(F)(F)F)cn2)C(=O)[C@@H](N)c2ccccc2)cc1C [Example 25, hydrochloride] | 0.0008

Alright, here's another compound for you.
For record Cc1ccc(N(CCc2ccc(Cl)cn2)C(=O)[C@@H](O)c2ccccc2)cc1C [Example 66] the listed Kb is 0.0057

Reference source for all entries: patent US8133909B2
